Molecular target: Human DYRK1B (Homo sapiens, UniProt Q9Y463)
Construct: purchased Invitrogen PR8350B (former PV4649)
Sequence (Q9Y463 whole entry): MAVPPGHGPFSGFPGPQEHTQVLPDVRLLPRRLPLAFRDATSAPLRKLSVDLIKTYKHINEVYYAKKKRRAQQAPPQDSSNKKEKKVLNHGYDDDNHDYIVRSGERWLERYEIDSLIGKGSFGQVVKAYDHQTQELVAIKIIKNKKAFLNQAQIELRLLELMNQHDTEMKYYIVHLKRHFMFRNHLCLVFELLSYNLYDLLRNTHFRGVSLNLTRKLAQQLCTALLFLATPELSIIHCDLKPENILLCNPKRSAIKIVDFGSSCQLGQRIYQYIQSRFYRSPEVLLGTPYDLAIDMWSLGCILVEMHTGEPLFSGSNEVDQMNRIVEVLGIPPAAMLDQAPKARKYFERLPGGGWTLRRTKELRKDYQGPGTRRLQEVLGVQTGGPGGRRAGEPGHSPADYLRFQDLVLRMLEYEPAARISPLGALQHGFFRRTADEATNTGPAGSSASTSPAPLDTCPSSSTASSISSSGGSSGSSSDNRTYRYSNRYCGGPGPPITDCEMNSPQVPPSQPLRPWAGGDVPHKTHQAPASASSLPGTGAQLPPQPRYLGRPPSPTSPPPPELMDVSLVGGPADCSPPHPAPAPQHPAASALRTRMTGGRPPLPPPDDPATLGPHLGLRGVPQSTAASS
Experiment: DYRK1B Kinase TR-FRET (IMAP-Tb) Assay
Format: biochemical
Conditions: TR-FRET (IMAP-Tb); ATP 70 μM; 37° C. 60 minutes; read-out: Enzyme IC50 (μM) DYRK1B
Counter-ions that a name gives are not always drawn.
Consider the following compounds; for each one, report its IC50.
# unit: µM | format: bare number

Query: Any idea what IC50 was measured for NCCC(NC(=O)c1cc(NC(=O)c2cc3cnc(N4CCOCC4)nc3[nH]c2=O)c(Cl)cc1F)c1cccc(Cl)c1 (stereo not shown) ?
Reply: 0.0932

Query: Any idea what IC50 was measured for NCCC(NC(=O)c1ccc(Cl)c(NC(=O)c2cc3cnc(N4C[C@H]5CC[C@@H](C4)O5)nc3[nH]c2=O)c1)c1ccccc1 (stereo partly shown) [Example 183, hydrochloride] ?
Reply: 0.0077

Query: Any idea what IC50 was measured for CC(C)(O)CNc1ncc2cc(C(=O)Nc3cc(C(=O)NC(CO)c4ccccc4)ccc3Cl)c(=O)[nH]c2n1 (stereo not shown) ?
Reply: 0.185

Query: Any idea what IC50 was measured for "CCOCCN(CCOCC)c1ncc2cc(C(=O)Nc3cc(C(=O)OC)ccc3Cl)c(=O)[nH]c2n1" ?
Reply: 0.22

Query: Any idea what IC50 was measured for "COC(=O)c1ccc(Cl)c(NC(=O)c2cc3cnc(N4CCN(C)CC4)nc3[nH]c2=O)c1" ?
Reply: 0.031

Query: Any idea what IC50 was measured for "COc1ncc2cc(C(=O)Nc3cc(C(=O)NCc4ccc(Cl)cc4)ccc3Cl)c(=O)[nH]c2n1" ?
Reply: 0.192

---

Target: Human DYRK1A (Homo sapiens, UniProt Q13627)
Construct: purchased Invitrogen PV3997
Assay: DYRK1A Kinase TR-FRET (IMAP-Tb) Assay
Assay type: biochemical
Conditions: TR-FRET (IMAP-Tb); ATP 70 μM; 37° C. 60 minutes; read-out: Enzyme IC50 (μM) DYRK1A
Structures can show the parent of a compound that is named as a salt.
metric-name: IC50 (µM)
# unit: µM | format: bare number

Query: Notebook: pull reported IC50 for Human DYRK1A (Homo sapiens, UniProt Q13627), entry COc1ncc2cc(C(=O)Nc3cc(C(=O)NC(CN)C4CCCCC4)ccc3Cl)c(=O)[nH]c2n1 (stereo not shown)
Reply: 0.036

Query: Notebook: pull reported IC50 for Human DYRK1A (Homo sapiens, UniProt Q13627), entry "COc1ncc2cc(C(=O)Nc3cc(C(=O)N(C)Cc4ccccc4)ccc3Cl)c(=O)[nH]c2n1"
Reply: 0.561

Query: Notebook: pull reported IC50 for Human DYRK1A (Homo sapiens, UniProt Q13627), entry "COc1ncc2cc(C(=O)Nc3cc(C(=O)NCc4ccccc4Cl)ccc3Cl)c(=O)[nH]c2n1"
Reply: 0.0343

Query: Notebook: pull reported IC50 for Human DYRK1A (Homo sapiens, UniProt Q13627), entry COc1nc(C)c2cc(C(=O)Nc3cc(C(=O)NC(CN)c4ccccc4)ccc3Cl)c(=O)[nH]c2n1 (stereo not shown) [Example 170, 2,2,2-trifluoroacetate]
Reply: 0.0164

Query: Notebook: pull reported IC50 for Human DYRK1A (Homo sapiens, UniProt Q13627), entry NC1CCN(c2ncc3cc(C(=O)Nc4cc(C(=O)NC(CO)c5ccccc5)ccc4Cl)c(=O)[nH]c3n2)CC1 (stereo not shown) [Example 147, hydrochloride]
Reply: 0.194

Query: Notebook: pull reported IC50 for Human DYRK1A (Homo sapiens, UniProt Q13627), entry "COC(=O)c1ccc(Cl)c(NC(=O)c2cc3cnc(N4CCOCC4)nc3[nH]c2=O)c1"
Reply: 0.095

Query: Notebook: pull reported IC50 for Human DYRK1A (Homo sapiens, UniProt Q13627), entry "COc1ncc2cc(C(=O)Nc3cc(C(=O)NCc4cccnc4)ccc3Cl)c(=O)[nH]c2n1"
Reply: 0.263
